Values from PubChem BioAssay (NCI)

- PROTOCOL: NCI Yeast Anticancer Drug Screen. Data for the mec2-1 strain (AID 157)
- TEST_CONTEXT: S. cerevisiae mec2-1 strain, at 50.0 µM
Compounds without any hit were thinned out: in the full panel of roughly 79,000, 15% have a hit. The source made the active and inactive calls. Rule as the data show it: active = growth inhibition above about 70%; inactive = the rest.
Your response should consist of one outcome taken from 1 = active, 0 = inactive

{"COMPOUND": "CC(C)=CCC/C(C)=C/CC/C(C)=C/CC/C=C(\\C)CC/C=C(\\C)CCC[N+](C)(C)[O-]", "CATEGORY": 1}
{"COMPOUND": "COP(=O)(OC)/C(=C/c1cn(C(c2ccccc2)(c2ccccc2)c2ccccc2)cn1)NC=O", "CATEGORY": 0}
{"COMPOUND": "O=C1C(=O)c2cc(Br)cc([N+](=O)[O-])c2-c2ccc(Br)cc21", "CATEGORY": 1}
{"COMPOUND": "COc1ccc2nc3cc(Cl)ccc3c(Nc3ccc(S(N)(=O)=O)cc3)c2c1", "CATEGORY": 0}
{"COMPOUND": "COC(=O)CCC(NC(=S)N/N=C(\\C)c1cnc2ccccc2n1)C(=O)OC (configuration not stated)", "CATEGORY": 0}
{"COMPOUND": "C[N+]1(Cc2ccc([N+](=O)[O-])cc2)CCC[C@H]1c1ccc[n+](Cc2ccc([N+](=O)[O-])cc2)c1 (some centres not stated)", "CATEGORY": 0}
{"COMPOUND": "CCOC(=O)Nc1cc2c(cc1Br)-c1ccccc1C2O (configuration not stated)", "CATEGORY": 0}
{"COMPOUND": "CCCCCCCCCCCCCCC(O)C(=O)O (configuration not stated)", "CATEGORY": 1}
{"COMPOUND": "COc1ccc(NC(=O)CSC(N)=O)cc1", "CATEGORY": 0}
{"COMPOUND": "C/C(=N\\NC(=S)Nc1ccc([N+](=O)[O-])cc1)c1nc2ncccc2[nH]1", "CATEGORY": 0}

Check the results log: what was the call for COc1ccc(/C(O)=C/c2nc3ccc([N+](=O)[O-])cc3[nH]c2=O)cc1 ?
0

Follow-up item: CC(NNC(=S)N1CCCC1)c1ccccn1 (configuration not stated)
1

Follow-up item: O=C(O)CC1c2ccc3ccccc3c2CCC1c1ccccc1 (configuration not stated)
1

Follow-up item: Cc1ccc(S(=O)(=O)Nn2c(S)c(C#N)c(-c3ccc([N+](=O)[O-])cc3)c(C#N)c2=O)cc1
0

Follow-up item: Cc1ccc(SC2C(=O)C3(C)CCC2C3(C)C)cc1 (configuration not stated)
0

Follow-up item: CCN(CC)CCCC(C)Nc1c2ccccc2nc2c(C)cc(Br)cc12 (configuration not stated)
0

Follow-up item: Cc1cc(C=Nc2ccccc2)c(O)c2ncccc12
1

Follow-up item: Nc1ccc2c(SCC(=O)Nc3ccccc3-c3ccccc3NC(=O)CSc3c4ccccc4nc4cc(N)ccc34)c3ccccc3nc2c1
1
